# measured_target: UniProt Q5T2D3
# Sequence (whole entry): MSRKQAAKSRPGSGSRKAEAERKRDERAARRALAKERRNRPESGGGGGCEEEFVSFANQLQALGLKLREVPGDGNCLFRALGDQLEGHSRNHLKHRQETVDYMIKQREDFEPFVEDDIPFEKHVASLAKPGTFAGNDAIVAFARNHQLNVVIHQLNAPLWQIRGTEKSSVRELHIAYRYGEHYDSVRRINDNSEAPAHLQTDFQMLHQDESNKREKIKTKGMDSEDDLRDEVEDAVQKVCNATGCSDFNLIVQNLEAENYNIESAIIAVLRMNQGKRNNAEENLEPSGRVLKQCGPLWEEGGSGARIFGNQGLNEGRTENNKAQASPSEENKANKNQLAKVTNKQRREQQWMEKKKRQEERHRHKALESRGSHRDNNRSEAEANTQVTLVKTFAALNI
# method_summary: log2 ratio of Biotin-Ahx-Ub-VS probe labelling (fragment/DMSO); higher = less target engagement (more negative = stronger competition), active = hit call of the paper (q ≤ 0.05, log2 ratio ≤ -1)
# condition_label: compound concentration: 200 uM; treatment time: 3 h
Please mark Yes if the recorded log2 ratio of Biotin-Ahx-Ub-VS probe labelling is equal to or greater than -0.05, and No if it falls below.

Hi team, for C/C(=C\CNC(=O)CCl)c1cnn(C)c1.Cl , is the recorded log2 ratio of Biotin-Ahx-Ub-VS probe labelling at or above -0.05?
Yes

log2 ratio of Biotin-Ahx-Ub-VS probe labelling >= -0.05 for NC(=O)C(Cc1ccccc1)NC(=O)CCl (configuration not stated) ?
No

log2 ratio of Biotin-Ahx-Ub-VS probe labelling >= -0.05 for Cc1nnc(C(NC(=O)CCl)c2ccccc2)n1C (configuration not stated) ?
Yes

# check: log2 ratio of Biotin-Ahx-Ub-VS probe labelling of COCC1C=CCCN1C(=O)CCl (configuration not stated) is greater than or equal to -0.05
No

# bool: log2 ratio of Biotin-Ahx-Ub-VS probe labelling of CC(NC(=O)CCl)c1cccc2ccccc12 (configuration not stated) >= -0.05
No

Please check the record CC1CN(c2ccc(NC(=O)CCl)cc2)CC(C)O1 (configuration not stated) and state if its log2 ratio of Biotin-Ahx-Ub-VS probe labelling is at or above -0.05.
No

---

# measured_target: OTUD4 (UniProt Q01804)
# Sequence (Q01804 whole entry, the tested form may be a part): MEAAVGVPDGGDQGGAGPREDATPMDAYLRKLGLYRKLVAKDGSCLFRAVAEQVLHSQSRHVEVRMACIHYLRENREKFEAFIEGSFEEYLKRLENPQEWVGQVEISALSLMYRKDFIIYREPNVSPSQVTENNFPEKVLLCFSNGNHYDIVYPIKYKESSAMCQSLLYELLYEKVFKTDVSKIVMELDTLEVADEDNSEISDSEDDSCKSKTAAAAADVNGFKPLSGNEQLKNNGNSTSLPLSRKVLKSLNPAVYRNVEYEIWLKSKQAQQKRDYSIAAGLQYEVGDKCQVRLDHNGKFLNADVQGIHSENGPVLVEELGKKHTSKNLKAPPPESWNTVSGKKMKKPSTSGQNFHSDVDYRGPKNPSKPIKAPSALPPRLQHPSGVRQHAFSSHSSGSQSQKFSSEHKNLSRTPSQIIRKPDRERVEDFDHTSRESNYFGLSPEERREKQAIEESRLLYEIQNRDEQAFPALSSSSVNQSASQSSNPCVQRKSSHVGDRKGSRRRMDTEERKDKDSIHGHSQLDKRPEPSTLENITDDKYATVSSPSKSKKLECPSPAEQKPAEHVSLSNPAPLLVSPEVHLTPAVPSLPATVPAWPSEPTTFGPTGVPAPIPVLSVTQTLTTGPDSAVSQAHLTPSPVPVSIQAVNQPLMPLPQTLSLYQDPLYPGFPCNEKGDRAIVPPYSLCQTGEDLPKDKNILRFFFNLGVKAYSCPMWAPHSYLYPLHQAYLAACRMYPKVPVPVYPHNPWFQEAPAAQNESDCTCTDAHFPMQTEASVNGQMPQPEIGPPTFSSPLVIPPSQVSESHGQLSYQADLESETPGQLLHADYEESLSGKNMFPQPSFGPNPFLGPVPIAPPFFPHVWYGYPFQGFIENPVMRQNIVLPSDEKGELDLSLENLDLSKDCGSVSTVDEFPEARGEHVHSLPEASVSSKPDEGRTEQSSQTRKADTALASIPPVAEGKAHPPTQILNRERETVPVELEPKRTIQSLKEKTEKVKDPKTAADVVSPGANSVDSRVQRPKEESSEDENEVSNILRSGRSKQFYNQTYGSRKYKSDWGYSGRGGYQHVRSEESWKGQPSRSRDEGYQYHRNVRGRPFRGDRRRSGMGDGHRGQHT
# method_summary: log2 ratio of Biotin-Ahx-Ub-VS probe labelling (fragment/DMSO); higher = less target engagement (more negative = stronger competition), active = hit call of the paper (q ≤ 0.05, log2 ratio ≤ -1)
# condition_label: compound concentration: 200 uM; treatment time: 3 h
Form entry, call: pick from t for active, f for inactive

Given COc1ccc(-c2csc(NC(=O)CCl)n2)cc1 , state the outcome it received in this test.
f

Hello, I am checking results. What call was entered for Cl.O=C(CCl)NCCc1ncc(F)cc1F ?
f

Please state the recorded outcome for this compound: Cl.O=C(CCl)N1CCn2ncc(O)c2C1
f

GET /call?item= CS(=O)(=O)c1ccc(NC(=O)CCl)cc1 returns the recorded outcome of this test.
f

For this compound, state the assay outcome: CCN(Cc1ccc(C#N)cc1F)C(=O)CCl
f

Status in this test for Cl.Cn1ncc2c1CCCC2NC(=O)CCl (stereo not drawn) ?
t

For CC(NC(=O)CCl)c1csc(-c2ccccc2)n1.Cl (stereo not drawn) , what call appears in the results of this test?
t

Tell me the assay call for O=C(CCl)N1CCC(=C(F)CO)C1 please.
f

Entry O=C(CCl)NCC1(c2ccccc2)CC1 : call = ?
f

What call does the record list for O=C(CCl)Nc1ccc(Cl)c(F)c1 ?
t

Which outcome did this test record for the compound O=C(CCl)N1CCOC2(CCC2)CC1 ?
f

I'd appreciate the recorded outcome for Cl.O=C(CCl)N1CCC(n2nc3ccccc3n2)CC1 from this test.
f

Hi, sorry to bother you, what did the test record for Cl.O=C(CCl)N1CCCC(c2ncc[nH]2)C1 (stereo not drawn) ?
f

Kindly provide the recorded test outcome for the following compound: O=C(CCl)N1c2ccccc2NC(=O)C12CCCC2
f

Dear all, I need the recorded test outcome for O=C(CCl)N1CCc2nc[nH]c2C1c1ccc(Cl)cc1 (stereo not drawn) , thank you.
f

Field: outcome | Entry: Cc1c(C#N)c(NC(=O)CCl)n(Cc2ccco2)c1C
f

For this compound, state the assay outcome: O=C(CCl)N1CCc2ccccc2C(O)C1 (stereo not drawn)
f

What did the test return for CC1CCc2onc(CNC(=O)CCl)c2C1 (stereo not drawn) ?
f

Record lookup: outcome of this test for O=C(CCl)N1CCC(C(=O)N2CCCC2)CC1 ?
f

Tell me the assay call for Cc1cccc(N2CCC(NC(=O)CCl)C2=O)c1 (stereo not drawn) please.
f

# outcome recorded in this test, key = N#Cc1ccc(CNC(=O)CCl)cc1
f

Please let me know the test result on file for CN(C)S(=O)(=O)c1ccccc1CNC(=O)CCl .
f

What did the test return for C[C@@H](NC(=O)CCl)c1cccc(C#N)c1 ?
f

Test call for this compound, please: Cc1cccnc1NC(=O)C1CCN(C(=O)CCl)CC1.Cl
f

Query: recorded result category for O=C(O)C1Cc2ccccc2CN1C(=O)CCl (stereo not drawn) in this test
f

Assay outcome for O=C(CCl)N1CCOC(CCc2ccccc2)C1 (stereo not drawn) : what was it?
f

Which outcome did this test record for the compound Cc1ccccc1CN(C)C(=O)CCl ?
f

Please let me know the test result on file for Cl.O=C(CCl)NCc1cc2c(nc1O)CCCC2 .
f

---

# measured_target: OTUB1 (UniProt Q96FW1)
# Sequence (Q96FW1 whole entry, the tested form may be a part): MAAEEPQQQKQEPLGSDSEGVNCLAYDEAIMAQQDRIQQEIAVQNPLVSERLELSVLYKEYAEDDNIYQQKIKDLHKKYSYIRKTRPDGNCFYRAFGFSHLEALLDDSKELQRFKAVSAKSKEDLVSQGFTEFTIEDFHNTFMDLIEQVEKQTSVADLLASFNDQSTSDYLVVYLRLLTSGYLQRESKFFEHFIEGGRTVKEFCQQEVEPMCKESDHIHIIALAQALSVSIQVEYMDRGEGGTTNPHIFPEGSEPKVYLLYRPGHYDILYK
# method_summary: log2 ratio of Biotin-Ahx-Ub-VS probe labelling (fragment/DMSO); higher = less target engagement (more negative = stronger competition), active = hit call of the paper (q ≤ 0.05, log2 ratio ≤ -1)
# condition_label: compound concentration: 200 uM; treatment time: 3 h
Would you please tag the item TRUE when its log2 ratio of Biotin-Ahx-Ub-VS probe labelling is -0.2 or above, and FALSE when it is below?

Check the entry Cl.O=C(CCl)N1CCC(n2nc3ccccc3n2)CC1 : does log2 ratio of Biotin-Ahx-Ub-VS probe labelling equal or exceed -0.2?
FALSE

Test whether the molecule O=C(CCl)N1CCC(c2nc3ccccc3o2)CC1 records log2 ratio of Biotin-Ahx-Ub-VS probe labelling of -0.2 or higher.
TRUE

# check: log2 ratio of Biotin-Ahx-Ub-VS probe labelling of CN(CCC(O)c1ccc(Br)cc1)C(=O)CCl (configuration not stated) is greater than or equal to -0.2
FALSE

# bool: log2 ratio of Biotin-Ahx-Ub-VS probe labelling of Cc1ccc(N(C(=O)CCl)C2C=CS(=O)(=O)C2)cc1 (configuration not stated) >= -0.2
TRUE

Entry Cl.O=C(CCl)NC1(c2ncccn2)CCC1 : is its log2 ratio of Biotin-Ahx-Ub-VS probe labelling no less than -0.2?
FALSE

Please indicate if the recorded log2 ratio of Biotin-Ahx-Ub-VS probe labelling for N#Cc1ccccc1N1CCN(C(=O)CCl)CC1 meets or exceeds -0.2.
FALSE

Test whether the molecule NC(=O)C1CCCCN1C(=O)CCl (configuration not stated) records log2 ratio of Biotin-Ahx-Ub-VS probe labelling of -0.2 or higher.
TRUE

---

Please provide measured log2 ratio of Biotin-Ahx-Ub-VS probe labelling for the entries that follow.
# measured_target: USP42 (UniProt Q9H9J4)
# Sequence (whole entry): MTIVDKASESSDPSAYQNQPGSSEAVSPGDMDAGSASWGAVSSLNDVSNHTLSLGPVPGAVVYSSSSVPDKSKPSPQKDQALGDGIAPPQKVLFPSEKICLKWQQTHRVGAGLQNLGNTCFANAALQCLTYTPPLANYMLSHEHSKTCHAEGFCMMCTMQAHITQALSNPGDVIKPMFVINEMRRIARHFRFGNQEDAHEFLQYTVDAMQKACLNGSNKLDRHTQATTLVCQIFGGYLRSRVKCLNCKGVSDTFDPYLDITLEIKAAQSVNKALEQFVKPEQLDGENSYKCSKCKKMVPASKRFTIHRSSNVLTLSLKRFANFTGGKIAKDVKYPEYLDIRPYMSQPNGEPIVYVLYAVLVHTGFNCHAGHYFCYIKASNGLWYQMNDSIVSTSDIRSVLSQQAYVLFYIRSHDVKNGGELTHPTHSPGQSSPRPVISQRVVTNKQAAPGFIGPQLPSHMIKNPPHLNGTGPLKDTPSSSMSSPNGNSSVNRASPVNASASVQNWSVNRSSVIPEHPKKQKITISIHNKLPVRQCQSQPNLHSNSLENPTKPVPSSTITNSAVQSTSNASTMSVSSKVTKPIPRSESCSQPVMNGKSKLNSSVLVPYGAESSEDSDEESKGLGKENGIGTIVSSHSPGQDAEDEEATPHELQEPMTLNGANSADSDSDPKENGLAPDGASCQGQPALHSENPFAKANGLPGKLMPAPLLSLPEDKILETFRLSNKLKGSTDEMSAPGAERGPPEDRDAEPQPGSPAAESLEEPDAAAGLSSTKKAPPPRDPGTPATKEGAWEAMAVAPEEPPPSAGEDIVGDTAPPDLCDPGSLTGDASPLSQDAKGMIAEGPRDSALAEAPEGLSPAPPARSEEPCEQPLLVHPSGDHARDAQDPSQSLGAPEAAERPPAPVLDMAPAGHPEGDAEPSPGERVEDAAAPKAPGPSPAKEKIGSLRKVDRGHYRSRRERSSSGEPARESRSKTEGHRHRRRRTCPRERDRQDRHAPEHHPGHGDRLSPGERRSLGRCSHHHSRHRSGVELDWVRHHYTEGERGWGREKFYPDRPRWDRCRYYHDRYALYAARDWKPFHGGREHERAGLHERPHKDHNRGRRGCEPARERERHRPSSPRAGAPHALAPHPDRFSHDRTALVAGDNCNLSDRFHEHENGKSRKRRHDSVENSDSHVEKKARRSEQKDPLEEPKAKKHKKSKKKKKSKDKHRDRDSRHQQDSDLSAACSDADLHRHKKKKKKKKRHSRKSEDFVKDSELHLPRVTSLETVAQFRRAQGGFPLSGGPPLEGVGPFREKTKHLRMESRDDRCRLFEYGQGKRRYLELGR
# method_summary: log2 ratio of Biotin-Ahx-Ub-VS probe labelling (fragment/DMSO); higher = less target engagement (more negative = stronger competition), active = hit call of the paper (q ≤ 0.05, log2 ratio ≤ -1)
# condition_label: compound concentration: 200 uM; treatment time: 3 h

Item under review: O=C(CCl)Nc1ccc(F)cc1F . Reported log2 ratio of Biotin-Ahx-Ub-VS probe labelling?
-0.555 (inactive)

Request the reported log2 ratio of Biotin-Ahx-Ub-VS probe labelling associated with CS(=O)(=O)c1ccc(NC(=O)CCl)cc1
0.0549 (inactive)

Please report the recorded log2 ratio of Biotin-Ahx-Ub-VS probe labelling for COc1ccc(CN(C)C(=O)CCl)cc1 .
0.294 (inactive)

Endpoint output: log2 ratio of Biotin-Ahx-Ub-VS probe labelling of C[C@H]1CN(C(=O)CCl)CCN1C(=O)c1cnn(C)c1.Cl . Value?
0.109 (inactive)

Could you share which log2 ratio of Biotin-Ahx-Ub-VS probe labelling value was measured for O=C(CCl)N1CCN(c2nc3ccccc3o2)CC1 ?
0.952 (inactive)

Which log2 ratio of Biotin-Ahx-Ub-VS probe labelling is reported for this compound? Cc1ccc(-c2nnc(C)[nH]2)c(NC(=O)CCl)c1
0.00752 (inactive)

# log2 ratio of Biotin-Ahx-Ub-VS probe labelling lookup, item Cc1cccc(C(CNC(=O)CCl)N2CCOCC2)c1.Cl (stereo not drawn)
-0.208 (inactive)

log2 ratio of Biotin-Ahx-Ub-VS probe labelling lookup needed for O=C(CCl)NCc1ccc(Cl)cc1 , thanks.
0.175 (inactive)

Given the compound Cc1conc1C1CN(C(=O)CCl)C1 , what is its reported log2 ratio of Biotin-Ahx-Ub-VS probe labelling?
0.317 (inactive)

Recorded log2 ratio of Biotin-Ahx-Ub-VS probe labelling for CC(NC(=O)CCl)c1cccc(Cl)c1 (stereo not drawn) , please?
-0.459 (inactive)

Need log2 ratio of Biotin-Ahx-Ub-VS probe labelling, item O=C(CCl)N1CCC(OCc2ccccc2F)CC1
0.919 (inactive)

Record request: log2 ratio of Biotin-Ahx-Ub-VS probe labelling value, item CC1CN(c2ccc(NC(=O)CCl)cc2)CC(C)O1 (stereo not drawn)
0.0421 (inactive)

What does the record list as log2 ratio of Biotin-Ahx-Ub-VS probe labelling for Cc1cc(C2CCCN2C(=O)CCl)nn1C.Cl (stereo not drawn) ?
0.512 (inactive)

# get_value(readout='log2 ratio of Biotin-Ahx-Ub-VS probe labelling', item= CCc1c[nH]c(CNC(=O)CCl)n1.Cl )
0.203 (inactive)

Bench note: what log2 ratio of Biotin-Ahx-Ub-VS probe labelling did O=C(CCl)N(C1CCCC1)C1CCS(=O)(=O)C1 (stereo not drawn) show?
0.228 (inactive)

So what does the record say about log2 ratio of Biotin-Ahx-Ub-VS probe labelling for COc1ccccc1C(C)NC(=O)CCl (stereo not drawn) ?
-0.0523 (inactive)

Can you share its log2 ratio of Biotin-Ahx-Ub-VS probe labelling? I mean this compound: Cl.O=C(CCl)NCc1ccnc(Oc2ccccc2F)c1
-0.336 (inactive)

Suppose we examine the compound Cc1ccc(C)c(NC(=O)CCl)c1 ; what log2 ratio of Biotin-Ahx-Ub-VS probe labelling value has been reported?
0.248 (inactive)

Which log2 ratio of Biotin-Ahx-Ub-VS probe labelling is listed for Cc1ccn2cc(CNC(=O)CCl)nc2c1.Cl ?
0.192 (inactive)

Please give the measured log2 ratio of Biotin-Ahx-Ub-VS probe labelling for this compound: Cl.O=C(CCl)NCCc1ncc(F)cc1F
-0.132 (inactive)

Which value of log2 ratio of Biotin-Ahx-Ub-VS probe labelling has been reported for Cl.Cn1nc2c(c1CNC(=O)CCl)CCCC2 in the records?
-0.241 (inactive)

# input compound: O=C(CCl)N[C@H]1CCS(=O)(=O)c2ccccc21 ; wanted: its log2 ratio of Biotin-Ahx-Ub-VS probe labelling
0.186 (inactive)

Record request: log2 ratio of Biotin-Ahx-Ub-VS probe labelling value, item O=C(CCl)NC1CCN(C(=O)C2CCCCC2)CC1
0.471 (inactive)

Fill blank: measured log2 ratio of Biotin-Ahx-Ub-VS probe labelling of the compound Cl.Cn1c(CNC(=O)CCl)nc2cccnc21 is ____.
-0.141 (inactive)

Fill blank: measured log2 ratio of Biotin-Ahx-Ub-VS probe labelling of the compound COc1ccc(C2CCCN2C(=O)CCl)c(OC)c1 (stereo not drawn) is ____.
0.426 (inactive)

Request the reported log2 ratio of Biotin-Ahx-Ub-VS probe labelling associated with O=C(CCl)Nc1cccc2ncccc12
0.41 (inactive)

Sample O=C(CCl)NCCc1cccc2ccccc12 — what was its log2 ratio of Biotin-Ahx-Ub-VS probe labelling?
0.608 (inactive)

Fill in the blank: the reported log2 ratio of Biotin-Ahx-Ub-VS probe labelling of Cc1cccc(N(CCC#N)C(=O)CCl)c1C is ____.
0.0225 (inactive)

Each recorded value in this set is attributed to the supplement of paper PMC11732987.
